# SYSTEM_NAME: NcLPMO9C (Neurospora crassa, UniProt Q7SHI8)
# Sequence (Q7SHI8 17-359): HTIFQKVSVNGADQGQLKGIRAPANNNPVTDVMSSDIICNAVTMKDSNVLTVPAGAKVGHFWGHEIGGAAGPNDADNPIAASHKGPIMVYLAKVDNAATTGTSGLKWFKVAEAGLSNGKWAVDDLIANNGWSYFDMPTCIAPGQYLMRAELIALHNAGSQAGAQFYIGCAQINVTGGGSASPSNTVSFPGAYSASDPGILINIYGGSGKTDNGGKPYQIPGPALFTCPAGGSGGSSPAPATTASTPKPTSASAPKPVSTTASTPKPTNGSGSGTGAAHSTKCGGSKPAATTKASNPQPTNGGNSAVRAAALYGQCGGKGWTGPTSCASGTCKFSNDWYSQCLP
# PROTOCOL_TEXT: biochemical
# CONDITION: IC50 values as summarised in the text, for both assays (2,6-DMP and hydrocoerulignone), peroxidase reaction
Kindly state IC50 for each of the entries shown.

O=C(O)C(=O)O [Oxalic acid]
~1000 µM

Now consider a different compound.
# IC50 of N[C@@H](Cc1c[nH]cn1)C(=O)O [Histidine] = ~1000 µM

---

# SYSTEM_NAME: NcLPMO9C (Neurospora crassa, UniProt Q7SHI8)
# CONDITION: - Ascorbic acid (blank); 4 h, 4 × 100 µM H2O2, 100 mM compound
Assign True whenever Total cello-oligomers produced does not fall below 10 µM; assign False whenever it does.

Sample answers from the record:
O=C(O)C(=O)O
True
CC(=O)O
True
CC(=O)C(=O)O
False
O=C(O)CC(O)(CC(=O)O)C(=O)O
True

Kindly determine if Total cello-oligomers produced recorded for `O=P(O)(O)O` is above or exactly 10 µM.
True

Record CC(O)C(=O)O (stereo not drawn) ; criterion: Total cello-oligomers produced no lower than 10 µM. Met?
True
